- tested-system: HIF-2α HIS TAG-PASB Domain (Homo sapiens)
- Construct: 100 nM HIF-2α HIS TAG-PASB Domain
- Sequence (Q99814 240-350 limits assumed): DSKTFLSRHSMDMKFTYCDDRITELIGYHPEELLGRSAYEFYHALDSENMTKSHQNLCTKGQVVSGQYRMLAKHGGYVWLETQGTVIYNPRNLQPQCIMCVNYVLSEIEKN
- assay-explanation: HIF-2α Scintillation Proximity Assay (SPA)
- Format: binding
- condition-details: read-out: Scintillation Proximity Assay IC50
- Experimental: The total assay volume was about 100 μL in the following configuration: 2 μL compound in 100% DMSO, 88 μL buffer with protein and probe and 10 μL of SPA beads. […] The percent inhibition was determined and IC50 values were calculated using the Dotmatics system based on the following equation: % inhibition=[(high control−sample)/(high control−low control)]×100.
assay-readout: IC50

Sample answers from the record:
compound: N#Cc1cc(F)cc(Oc2ccc3c(c2Br)[C@@H](O)C(F)(F)S3(=O)=O)c1 [Compound 347]
IC50: < 50 nM

compound: CC1(C)C[C@H](O)C[C@@H](c2ccc(S(=O)(=O)C(F)(F)F)c3c2CC(F)(F)[C@H]3O)C1 [Compound 549]
IC50: < 50 nM

compound: O=S(=O)(c1ccc(NCc2ccco2)c2c1[C@H](O)C(F)(F)C2)C(F)F [Compound 529]
IC50: > 1000 nM

compound: CCOc1ccc(C(F)(F)F)c2c1CC[C@H]2O [Compound 673]
IC50: > 1000 nM

compound: N#Cc1cc(F)cc(Oc2ccc(S(=O)(=O)C3CCC3)c3c2CC(F)(F)[C@H]3O)c1 [Compound 209]
IC50: 250 to 1000 nM

Please give IC50, item by item, for the list that follows.
1. N#Cc1cc(F)cc(Oc2ccc(S(=O)(=O)C(F)F)c3c2CC(F)(F)[C@H]3N)c1 [Compound 207]
2. CS(=O)(=O)c1ccc(OCCC2(C#N)CC2)c2c1[C@H](O)C(F)(F)[C@@H]2F [Compound 772]

1: 250 to 1000 nM; 2: > 1000 nM

Please give IC50, item by item, for the list that follows.
1. O=S(=O)(c1ccc(OCc2ccccn2)c2c1C(O)C(F)(F)C2)C(F)(F)F (stereo not shown) [Compound 665]
2. C[C@]1(C#N)C[C@@H](Oc2ccc(S(=O)(=O)C(F)(F)F)c3c2C[C@@H](F)[C@H]3O)C1 [Compound 794]
3. CC(C)(C#N)COc1ccc(S(C)(=O)=O)c2c1[C@@H](F)C(F)(F)[C@H]2O [Compound 752]
4. O=S(=O)(c1ccc(OCC2CC2)c2c1C(O)C(F)(F)C2)C(F)(F)F (stereo not shown) [Compound 598]
5. CS(=O)(=O)c1ccc(Oc2cc(F)cc(C#N)c2)c2c1[C@H](O)C(F)(F)[C@H]2F [Compound 293]
6. O=S1(=O)c2ccc(Oc3cccc4sccc34)c(C(F)F)c2C(O)C1(F)F (stereo not shown) [Compound 440]
7. O=S1(=O)c2ccc(OCC3CC3)c(C(F)F)c2[C@@H](O)C1(F)F [Compound 439]

1: > 1000 nM; 2: < 50 nM; 3: > 1000 nM; 4: 50 to 249 nM; 5: 250 to 1000 nM; 6: < 50 nM; 7: > 1000 nM

Please give IC50, item by item, for the list that follows.
1. CC(C)(COc1ccc(S(=O)(=O)C(F)(F)F)c2c1CC(F)(F)[C@H]2O)S(C)(=O)=O [Compound 723]
2. CS(=O)(=O)c1ccc(OC2CC(F)(F)C2)c2c1[C@H](O)[C@H](F)C2 [Compound 585]
3. CS(=O)(=O)c1ccc(Oc2cncc(Cl)c2)c2c1[C@H](O)C(F)(F)C2 [Compound 115]

1: > 1000 nM; 2: < 50 nM; 3: 250 to 1000 nM

Please give IC50, item by item, for the list that follows.
1. O=S(=O)(c1ccc(Oc2cccc3[nH]ncc23)c2c1C(O)C(F)(F)C2)C(F)(F)F (stereo not shown) [Compound 243]
2. CS(=O)(=NC#N)c1ccc(Oc2cc(F)cc(C#N)c2)c2c1C(O)CC2 (stereo not shown) [Compound 68]
3. O=S(=O)(CF)c1ccc(Oc2cc(F)cc(F)c2)c2c1[C@H](O)C(F)(F)C2 [Compound 64]

250 to 1000 nM
> 1000 nM
< 50 nM

Recorded values, source patent US10278942B2.
